# Read-out: Hypoxia-inducible factor 1-alpha (Homo sapiens)
# procedureText: LTEA_HepaRG_HIF1A: Life Technologies and Expression Analysis (LTEA) Assay for Hypoxia-inducible factor 1 (HIF1A) Trancription factor using HepaRG (AID 2283503);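 further: HIF1A transcript by TaqMan qRT-PCR normalized to ACTB GAPDH and POLR2A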
# conditionInfo: mRNA level, 48 h; actives raise or lower the signal
Activity calls are given as the source filed them. How the source made its calls: active means hit-call score of the fitted dose curve at least 0.9, where 1 is the maximum; inactive means score below 0.9.
Pick one and only one: active, inactive

query: Can you look up the reported call for CCCCC(CC)C(=O)O (configuration not stated) for me?
result: inactive

query: Now the molecule N=C(N)c1ccc(OCCCCCOc2ccc(C(=N)N)cc2)cc1
result: active

query: Now the molecule CS(=O)(=O)c1ccc([C@@H](CC2CCCC2)C(=O)Nc2cnccn2)cc1Cl
result: inactive

query: Now the molecule O=C1NS(=O)(=O)c2ccccc21
result: inactive

query: Now the molecule Cc1[nH]nc2c1N=C(c1ccccc1Cl)c1cc([N+](=O)[O-])ccc1N2
result: inactive

query: Now the molecule CCCCC=O
result: inactive

query: Now the molecule O=C(c1ccccc1)c1ccccc1
result: inactive
